target system: T1, CD3 epsilon homodimer protein (UniProt P07766 23-126)
T1 construct: also called CD3 (CD3 epsilon)
T1 sequence (P07766 23-126): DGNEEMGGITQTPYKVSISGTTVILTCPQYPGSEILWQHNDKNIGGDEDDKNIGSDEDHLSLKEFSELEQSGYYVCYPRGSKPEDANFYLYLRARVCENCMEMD
experiment: SPR Biacore T200, CD3e homodimer on chip, vs unaltered GLS3000 antibody
endpoint name: ratio of amounts bound (Z=Y/X)
Reply briefly: the number, and no unit.

GLS3000 S27aD (antibody, name in Kabat numbering, V domains shown, one-arm IgG as m2) VH: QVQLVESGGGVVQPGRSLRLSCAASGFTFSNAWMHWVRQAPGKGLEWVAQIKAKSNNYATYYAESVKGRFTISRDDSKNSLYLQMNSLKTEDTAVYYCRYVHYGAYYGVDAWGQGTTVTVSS VL: DIVMTQSPLSLPVTPGEPASISCRSSQDLVHSNRNTYLHWYQQKPGQAPRLLIYKVSNRFSGVPDRFSGSGSGTDFTLKISRVEAEDVGVYYCGQGTQVPYTFGQGTKLEIK    0.79

Req: Name the reported ratio of amounts bound (Z=Y/X) value associated with the binder GLS3000 H27dM (antibody, name in Kabat numbering, V domains shown, one-arm IgG as m2) VH: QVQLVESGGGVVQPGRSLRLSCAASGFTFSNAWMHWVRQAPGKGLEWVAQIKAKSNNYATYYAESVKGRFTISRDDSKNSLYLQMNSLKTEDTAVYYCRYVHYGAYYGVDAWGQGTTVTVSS VL: DIVMTQSPLSLPVTPGEPASISCRSSQSLVMSNRNTYLHWYQQKPGQAPRLLIYKVSNRFSGVPDRFSGSGSGTDFTLKISRVEAEDVGVYYCGQGTQVPYTFGQGTKLEIK
Resp: 0.3
